melting point values by entry

Provide only the value of recorded melting point for `c1ccc2cc(NC3=NC4=NC(Nc5ccc6ccccc6c5)=NC5=NC(Nc6ccc7ccccc7c6)=NC(=N3)N45)ccc2c1`
> 275 °C

Provide only the value of recorded melting point for `COC(=O)c1ccc(NC2=NC3=NC(Nc4ccc(C(=O)OC)cc4)=NC4=NC(Nc5ccc(C(=O)OC)cc5)=NC(=N2)N34)cc1`
288 to 291 °C

Provide only the value of recorded melting point for `CCCCOC(=O)c1ccc(NC2=NC3=NC(Nc4ccc(C(=O)OCCCC)cc4)=NC4=NC(Nc5ccc(C(=O)OCCCC)cc5)=NC(=N2)N34)cc1`
289 to 290 °C

Provide only the value of recorded melting point for `c1cnn(-c2ccc(NC3=NC4=NC(Nc5ccc(-n6cccn6)cc5)=NC5=NC(Nc6ccc(-n7cccn7)cc6)=NC(=N3)N45)cc2)c1`
224 to 227 °C

Provide only the value of recorded melting point for `CCOC(=O)/C=C/c1ccc(NC2=NC3=NC(Nc4ccc(/C=C/C(=O)OCC)cc4)=NC4=NC(Nc5ccc(/C=C/C(=O)OCC)cc5)=NC(=N2)N34)cc1`
> 275 °C

Provide only the value of recorded melting point for `CCCCCCCCCCCCCCCCOC(=O)c1ccc(NC2=NC3=NC(Nc4ccc(C(=O)OCCCCCCCCCCCCCCCC)cc4)=NC4=NC(Nc5ccc(C(=O)OCCCCCCCCCCCCCCCC)cc5)=NC(=N2)N34)cc1`
252 to 255 °C
